System: third instar larvae of Spodoptera litura
experimentalProtocol: whole plant or invertebrate
Assay type: in vivo
experimentalContext: read-out: Larvicidal activity (%) at 72 h, replicate 2; 72 h; 25 ppm
reportedProperty: mortality (%)

>>> recordednumber("CNC(=O)c1cc(Cl)cc(C)c1NC(=O)c1cc(Br)nn1-c1ncccc1Cl [Chlorantraniliprole, chlorantraniliprole, reference compound]")
100

====

experimentalProtocol: pH-metric log P (ACD/Labs T3 method)
Assay type: physicochemical
experimentalContext: ACD/Labs T3 method (pH-metric); read-out: Log P
reportedProperty: logP

>>> recordednumber("CNC(=O)c1cc(Cl)cc(C)c1NC(=O)c1cc(Br)nn1-c1ncccc1Cl [Chlorantraniliprole, chlorantraniliprole, reference compound]")
5.25

====

Tested on: third instar larvae of Spodoptera litura
experimentalProtocol: whole plant or invertebrate
Assay type: in vivo
experimentalContext: read-out: Larvicidal activity (%) at 72 h, Average; 72 h; 25 ppm; average of three replicates
reportedProperty: mortality

>>> result("CNC(=O)c1cc(Cl)cc(C)c1NC(=O)c1cc(Br)nn1-c1ncccc1Cl [Chlorantraniliprole, chlorantraniliprole, reference compound]")
"100%"

====

System: third instar larvae of Spodoptera litura
experimentalProtocol: whole plant or invertebrate
Type: in vivo
experimentalContext: read-out: Larvicidal activity (%) at 72 h, replicate 1; 72 h; 25 ppm
reportedProperty: mortality (%)

>>> recordednumber("CNC(=O)c1cc(Cl)cc(C)c1NC(=O)c1cc(Br)nn1-c1ncccc1Cl [Chlorantraniliprole, chlorantraniliprole, reference compound]")
100

====

Tested on: third instar larvae of Spodoptera litura
experimentalProtocol: whole plant or invertebrate
Assay type: in vivo
experimentalContext: read-out: Larvicidal activity (%) at 72 h, replicate 3; 72 h; 25 ppm
reportedProperty: mortality (%)

>>> recordednumber("CNC(=O)c1cc(Cl)cc(C)c1NC(=O)c1cc(Br)nn1-c1ncccc1Cl [Chlorantraniliprole, chlorantraniliprole, reference compound]")
100

====

Test system: third instar larvae of Spodoptera litura
experimentalProtocol: whole plant or invertebrate
Assay type: in vivo
experimentalContext: read-out: Larvicidal activity (%) at 96 h, Average; 96 h; 25 ppm; average of three replicates
reportedProperty: mortality (%)

>>> recordednumber("CNC(=O)c1cc(Cl)cc(C)c1NC(=O)c1cc(Br)nn1-c1ncccc1Cl [Chlorantraniliprole, chlorantraniliprole, reference compound]")
100

====

System: third instar larvae of Spodoptera litura
experimentalProtocol: whole plant or invertebrate
Type: in vivo
experimentalContext: read-out: Larvicidal activity (%) at 96 h, replicate 3; 96 h; 25 ppm
reportedProperty: mortality (%)

>>> recordednumber("CNC(=O)c1cc(Cl)cc(C)c1NC(=O)c1cc(Br)nn1-c1ncccc1Cl [Chlorantraniliprole, chlorantraniliprole, reference compound]")
100

The reported measurements were obtained from paper PMC6804157.
